Source listed as patent US9266880B2.

- system-under-test: Human CYP17 (Homo sapiens (Human), UniProt P05093)
- Sequence (P05093 whole entry): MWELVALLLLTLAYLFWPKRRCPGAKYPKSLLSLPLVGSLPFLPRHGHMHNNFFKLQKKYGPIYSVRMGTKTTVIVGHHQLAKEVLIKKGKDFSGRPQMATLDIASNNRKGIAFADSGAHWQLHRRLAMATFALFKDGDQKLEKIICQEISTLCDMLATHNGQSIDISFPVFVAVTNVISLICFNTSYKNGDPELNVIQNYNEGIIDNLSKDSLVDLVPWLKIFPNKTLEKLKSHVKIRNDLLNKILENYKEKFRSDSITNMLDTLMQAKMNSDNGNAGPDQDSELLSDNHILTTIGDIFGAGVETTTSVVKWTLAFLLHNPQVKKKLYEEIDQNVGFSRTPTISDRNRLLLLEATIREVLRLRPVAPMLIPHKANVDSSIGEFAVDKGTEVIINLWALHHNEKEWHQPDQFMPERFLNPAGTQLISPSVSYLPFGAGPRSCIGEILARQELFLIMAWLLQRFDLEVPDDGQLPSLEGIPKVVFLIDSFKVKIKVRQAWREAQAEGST
- test: CYP17 Total SPA Assay
- Assay type: biochemical
- condition-context: microsomes from HEK2 cells stably transfected with CYP17; 3H-Pregnenolone 1 uM, NADPH 2 mM; 45 minutes at room temperature
pIC50: −log10 of the molar value.
Quick reference: pIC50 of the listed items.
observed-property: pIC50

> print(dat)
                            smiles.notation   val
1       Fc1ccc(-n2ncc3c(-n4ccnc4)ccnc32)cc1  6.19
2  Fc1ccc(-n2ncc3c(-c4cncc5ccccc45)ccnc32)cc1  6.89
3  Cn1cncc1-c1ccnc2c1cnn2-c1cccc(S(N)(=O)=O)c1  6.57
4  Fc1ccc(-n2ncc3c(-c4cncn5cccc45)ccnc32)c(F)c1  7.12
